Origin of the recorded values: paper PMC4762448

biological target: Ac-AChBP (Aplysia californica); assay: [3H] epibatidine competition scintillation proximity assay, Ac-AChBP; assay type: binding
Sequence (Q8WSF8 18-236 limits assumed): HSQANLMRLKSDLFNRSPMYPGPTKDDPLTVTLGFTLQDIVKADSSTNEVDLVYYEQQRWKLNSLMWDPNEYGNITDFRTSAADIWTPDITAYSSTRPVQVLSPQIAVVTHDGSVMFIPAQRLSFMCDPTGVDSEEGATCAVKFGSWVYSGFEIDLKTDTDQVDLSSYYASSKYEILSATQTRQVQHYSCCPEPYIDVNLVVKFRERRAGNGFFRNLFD
measure-name: pKd
When answering, recall that pKd equals minus log10 of the concentration in mol/L, and write that number alone.

# returns recorded pKd (system: Ac-AChBP (Aplysia californica)) for C[N+]1(C)[C@@H]2CC[C@H]1C[C@@H](OC(=O)C(CO)c1ccccc1)C2 (stereo partly shown) [Compound 10]
6.05

###

target: AcY55W-AChBP (Aplysia californica, UniProt Q8WSF8, Y72W); test: [3H] epibatidine competition scintillation proximity assay, AcY55W-AChBP
Sequence (Q8WSF8 18-236 Y72W limits assumed): as the sequence (Q8WSF8 18-236 limits assumed) above, with Y55W counted along it
measure-name: pKd
Scale explanation: pKd corresponds to minus log10 of a concentration expressed in moles per litre.

Record request: pKd value, item C[N+]1(C)[C@@H]2CC[C@H]1C[C@@H](OC(=O)C(CO)c1ccccc1)C2 (stereo partly shown)
5.70
